Form field: Kd (one value per entry).
- experiment.notes: Binding constant for EphB2 tyrosine kinase

mol | Kd (µM)
COc1cc2ncnc(Nc3cccc(O)c3)c2cc1OC | 2.4
CC(C)(C)n1nc(-c2ccc(Cl)cc2)c2c(N)ncnc21 | 36.5
COc1cc2ncnc(Nc3cccc(Br)c3)c2cc1OC | 8.1
CNc1cc2c(Nc3cccc(Br)c3)ncnc2cn1 | 21.9
CN(C)c1ccc(/C=C2\C(=O)Nc3ccccc32)cc1 | 19.5
COc1cc2ncnc(Nc3ccc(Oc4ccccc4)cc3)c2cc1OC | 58.4
